# Target Entity: human IRAK4 (Homo sapiens (Human))
# Sequence (Q9NWZ3 whole entry): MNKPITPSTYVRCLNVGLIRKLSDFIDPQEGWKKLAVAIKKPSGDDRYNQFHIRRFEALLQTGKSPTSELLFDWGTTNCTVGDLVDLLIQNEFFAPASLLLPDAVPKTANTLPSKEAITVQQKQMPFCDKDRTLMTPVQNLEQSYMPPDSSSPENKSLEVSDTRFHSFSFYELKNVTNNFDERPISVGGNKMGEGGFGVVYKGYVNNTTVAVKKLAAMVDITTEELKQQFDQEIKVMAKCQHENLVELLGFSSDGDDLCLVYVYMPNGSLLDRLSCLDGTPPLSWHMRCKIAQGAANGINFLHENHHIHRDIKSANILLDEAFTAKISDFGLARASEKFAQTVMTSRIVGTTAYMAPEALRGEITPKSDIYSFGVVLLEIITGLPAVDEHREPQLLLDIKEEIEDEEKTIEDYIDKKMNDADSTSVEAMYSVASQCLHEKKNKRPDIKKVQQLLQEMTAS
# Method Description: IRAK4 kinase inhibition, Transcreener fluorescence polarization ADP assay
# Study Conditions: recombinant full-length His6-IRAK4; 125 uM ATP; 90 min; Ki computed using ATP Km 642 uM
pKi: −log10 of the molar value.
Readout Label: pKi

>  <Molecule>
Cn1cncc1C1CCN(c2cc3c(cc2NC(=O)c2cnn4cccnc24)CC(C)(C)O3)C1 (centres unmarked)

>  <pKi>
7.08

$$$$
>  <Molecule>
CC(C)(O)[C@]1(C)Cc2cc(NC(=O)c3cnn4cccnc34)c(N3CCN(CC(N)=O)CC3)cc2O1

>  <pKi>
8.39

$$$$
>  <Molecule>
C[C@@]1(C2CC2)Cc2cc(NC(=O)c3cnn4cccnc34)c(N3CCN(CC(F)F)CC3)cc2O1

>  <pKi>
8.32

$$$$
>  <Molecule>
C[C@H](C(N)=O)N1CCN(c2cc3c(cc2NC(=O)c2cnn4cccnc24)CC(C)(C)O3)CC1

>  <pKi>
8.60

$$$$

[A] C[C@]1(O)COc2cc(N3CCC(n4ccnc4)CC3)c(NC(=O)c3cnn4cccnc34)cc2C1
[B] CC1(CC#N)Cc2cc(NC(=O)c3cnn4cccnc34)c(N3CCOCC3)cc2O1 (centres unmarked)
[C] C[C@]1(O)COc2cc(N3CCN(CC(F)F)CC3)c(NC(=O)c3cnn4cccnc34)cc2C1
Exercise: Could you please sort these 3 entries by pKi from high to low? Give me the labels in the order the question wants.
Key: B, C, A
(B: 7.80, C: 7.36, A: 7.12)

The measured values listed here are drawn from patent US10988478B1.
